These entries and their values trace back to patent US6972319B1.

# targetOrSystem: T1, PACAP-R3 (human, UniProt P41587 24-438)
# T1 sequence (looked up): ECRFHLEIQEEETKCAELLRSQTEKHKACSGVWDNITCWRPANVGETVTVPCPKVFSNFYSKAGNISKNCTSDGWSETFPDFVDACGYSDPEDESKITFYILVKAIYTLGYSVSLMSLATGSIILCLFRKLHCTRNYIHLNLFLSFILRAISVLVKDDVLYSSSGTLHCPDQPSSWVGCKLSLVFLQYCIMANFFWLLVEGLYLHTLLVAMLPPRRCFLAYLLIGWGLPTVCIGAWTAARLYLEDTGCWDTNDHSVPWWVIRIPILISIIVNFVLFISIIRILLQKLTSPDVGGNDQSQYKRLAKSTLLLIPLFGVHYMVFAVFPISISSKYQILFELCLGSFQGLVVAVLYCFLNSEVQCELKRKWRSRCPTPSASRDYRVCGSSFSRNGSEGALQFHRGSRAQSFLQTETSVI
# assayMethodText: cell-based or functional assay
Parameter R3 Selectivity: see the listing below.
Enter the number alone.

Example binders with recorded R3 Selectivity:
# input Supply R3 Selectivity value. Item: HSDAVFTDNYTRLRKQMALKKYLNSIKNKR [R3P105]
# output 3

# input Name the recorded R3 Selectivity of the binder listed here: HSDAVFTDNYTRLRKQMAVKKYLNDLKKGGT [R3P14]
# output 3

# input Quote R3 Selectivity reported for HSDAVFTDNYTRLRKQMAAKKYLNSIRNKR [R3P128] please.
# output 200

# input State its R3 Selectivity: HSDGIFTDSYSRYRKQLAVKKYLAAVKK [R3P39]
# output 2

# input Supply reported R3 Selectivity belonging to this binder: HSDGIFTDSYSRYRKQLAAKKYLADVKK [R3P38]
# output 7

***
# input // Input: HSDAVFTDNYTRLRKQMAAKKYLNSIKNDR [R3P136] . Output its R3 Selectivity only.
# output 70

# input Give the measured R3 Selectivity for HSDAVFTDNYTKLRKQLAAKKYLNDILNGGT [R3P11]
# output 3

# input Report R3 Selectivity for HSDAVFTDNYTRLRKQMAAKKYLNSIKNKE [R3P156]
# output 100

# input Answer with the recorded R3 Selectivity of HSDGIFTDSYSRYRKQMAVKKYLAAVKK [R3P40] only.
# output 2

# input Assign R3 Selectivity to the following record: HSDAVFTDNYTRLRKQVAAKKYLQSILKKRY [R3P83]
# output 60

# input Return R3 Selectivity for the following binder: HSDAVFTDNYTRLRKQMAAKKYLNSIKNNR [R3P144]
# output 100

# input Identify R3 Selectivity associated with the binder HSDAVFTDNYTRLRKQVAVKKYLQSIKNKRY [R3P82]
# output 23

# input Identify R3 Selectivity associated with the binder HSDAVFTDNYTRLRKQMAVKKYLNSIKKKRY [R3P56]
# output 100
